settings: 314.4 K; 101.33 kPa; Liquid; Pulse-echo method
Task for the reader: assign each of the following compounds its reported speed of sound.
Numbers only, in m/s.

> print(dat)
                                   compound    readout.kind  endpoint.value
1  CCCCC(=O)[O-].C[NH2+]CCO [2-hydroxy-N-methylethanaminium pentanoate]  speed of sound          1498.3
2  CCCC(=O)[O-].C[NH2+]CCO [N-methyl-2-hydroxyethylammonium butanoate]  speed of sound          1563.6
3  C[NH2+]CCO.O=C[O-] [2-hydroxy-N-methylethanaminium formate]  speed of sound          1783.6

I have 2 compounds here; please give me speed of sound for each one.
1. CC(C)C(=O)[O-].C[NH2+]CCO [2-hydroxy-N-methylethanaminium isobutyrate]
2. CCC(=O)[O-].C[NH2+]CCO [2-hydroxy-N-methylethanaminium propionate]

Output line:
1. 1565.4
2. 1642

---

conditions: 332.16 K; 101.33 kPa; Liquid; Vibrating tube method
Readout kind: mass density (kg/m3)
One number for each entry, in kg/m3.

I have 4 compounds here; please give me mass density for each one.
1. C[NH2+]CCO.O=C[O-] [2-hydroxy-N-methylethanaminium formate]
2. CCCC(=O)[O-].C[NH2+]CCO [N-methyl-2-hydroxyethylammonium butanoate]
3. CC(C)C(=O)[O-].C[NH2+]CCO [2-hydroxy-N-methylethanaminium isobutyrate]
4. CC(=O)[O-].C[NH2+]CCO [N-methyl-2-hydroxyethylammonium acetate]

Output line:
1. 1109.47
2. 1015.96
3. 1020.95
4. 1079.97

I have 2 compounds here; please give me mass density for each one.
1. CCCCC(=O)[O-].C[NH2+]CCO [2-hydroxy-N-methylethanaminium pentanoate]
2. CCC(=O)[O-].C[NH2+]CCO [2-hydroxy-N-methylethanaminium propionate]

Output line:
992.945
1048.71

---

settings: 301.15 K; 101.33 kPa; Liquid; Vibrating tube method
Readout kind: mass density (kg/m3)
Answers are plain numbers, in kg/m3.

Consider the worked cases shown below.
> print(dat)
                                   compound  endpoint.value
1  CC(=O)[O-].C[NH2+]CCO [N-methyl-2-hydroxyethylammonium acetate]         1099.04
2  CCC(=O)[O-].C[NH2+]CCO [2-hydroxy-N-methylethanaminium propionate]         1069.35
3  CC(C)C(=O)[O-].C[NH2+]CCO [2-hydroxy-N-methylethanaminium isobutyrate]         1041.45
4  CCCCC(=O)[O-].C[NH2+]CCO [2-hydroxy-N-methylethanaminium pentanoate]         1014.19
5  CCCC(=O)[O-].C[NH2+]CCO [N-methyl-2-hydroxyethylammonium butanoate]          1037.2

Turning now to a further record.
Input line: Please give measured mass density of the following entry: C[NH2+]CCO.O=C[O-] [2-hydroxy-N-methylethanaminium formate]
Output line: 1126.57

---

Task for the reader: assign each of the following compounds its reported speed of sound.
conditions: 307.4 K; 101.33 kPa; Liquid; Pulse-echo method
Answers are plain numbers, in m/s.

Consider the worked cases shown below.
> print(dat)
                                   compound    readout.kind  endpoint.value
1  CCCCC(=O)[O-].C[NH2+]CCO [2-hydroxy-N-methylethanaminium pentanoate]  speed of sound          1519.9
2  CCC(=O)[O-].C[NH2+]CCO [2-hydroxy-N-methylethanaminium propionate]  speed of sound          1662.7
3  CC(C)C(=O)[O-].C[NH2+]CCO [2-hydroxy-N-methylethanaminium isobutyrate]  speed of sound          1585.2
4  CCCC(=O)[O-].C[NH2+]CCO [N-methyl-2-hydroxyethylammonium butanoate]  speed of sound          1585.4

Turning now to a further record.
Input line: Please give measured speed of sound of the following entry: C[NH2+]CCO.O=C[O-] [2-hydroxy-N-methylethanaminium formate]
Output line: 1797.3
